Quick reference: pKd of the listed items.
Target: T1, EsCas13d, nuclease-dead (Eubacterium siraeum, UniProt B0MS50, R295A;H300A;R849A;H854A)
T1 sequence: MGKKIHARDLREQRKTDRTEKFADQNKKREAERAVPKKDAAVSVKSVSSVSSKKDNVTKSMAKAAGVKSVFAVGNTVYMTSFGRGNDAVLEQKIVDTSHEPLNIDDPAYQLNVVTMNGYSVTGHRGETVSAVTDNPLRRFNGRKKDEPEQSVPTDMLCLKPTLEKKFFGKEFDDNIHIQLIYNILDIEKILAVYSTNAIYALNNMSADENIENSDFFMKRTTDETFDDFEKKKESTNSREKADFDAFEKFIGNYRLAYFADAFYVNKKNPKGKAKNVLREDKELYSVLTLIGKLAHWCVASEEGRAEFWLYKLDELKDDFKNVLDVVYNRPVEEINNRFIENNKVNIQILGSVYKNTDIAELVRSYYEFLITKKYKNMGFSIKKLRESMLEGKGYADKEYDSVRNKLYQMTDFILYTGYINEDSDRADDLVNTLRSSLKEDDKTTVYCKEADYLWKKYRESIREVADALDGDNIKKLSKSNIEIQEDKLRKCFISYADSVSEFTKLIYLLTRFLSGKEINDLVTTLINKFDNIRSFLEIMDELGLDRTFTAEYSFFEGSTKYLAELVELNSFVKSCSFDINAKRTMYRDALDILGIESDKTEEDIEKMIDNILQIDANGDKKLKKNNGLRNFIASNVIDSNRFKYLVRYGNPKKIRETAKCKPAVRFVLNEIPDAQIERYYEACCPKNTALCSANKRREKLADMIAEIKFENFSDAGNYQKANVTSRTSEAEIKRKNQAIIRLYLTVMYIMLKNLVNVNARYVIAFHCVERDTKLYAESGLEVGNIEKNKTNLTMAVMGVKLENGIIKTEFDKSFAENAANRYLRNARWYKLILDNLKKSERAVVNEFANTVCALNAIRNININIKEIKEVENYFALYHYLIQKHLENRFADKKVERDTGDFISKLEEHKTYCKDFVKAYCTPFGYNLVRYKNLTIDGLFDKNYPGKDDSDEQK
Assay: crRNA (strand 1, pre-loaded); Mg2+; 40 mM Tris-HCl pH 7.5, 150 mM NaCl, 6 mM MgCl2, 1 mM DTT, 0.1% Tween-20, 0.2 mg/ml BSA; 25 C; 10 min per concentration, then washed
Conditions: tags: His6-TwinStrep-SUMO cleaved; N-terminal SNAP kept (SNAP-Surface 488); label: 3' end held by stalled T7 RNA polymerase
Please keep in mind that pKd is minus log10 of the molar concentration; only the number is needed.

Worked cases, pKd given:
INPUT: Can you look up the measured pKd of target 1 insG 3' of 22,insA 3' of 17 (mixed) RNA 1: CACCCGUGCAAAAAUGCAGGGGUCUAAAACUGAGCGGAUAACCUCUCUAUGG RNA 2: GGGAAUGGAUCCACAUCUACGAAUUCGUACGCAUAGAAGAGGUUAUCCGCUCACCGAGAUCGGAAGAGCACACGU for me?
OUTPUT: 7.15

INPUT: Let us now turn to target 2 MT 5'PFS UCU 3'PFS AAU (mixed) RNA 1: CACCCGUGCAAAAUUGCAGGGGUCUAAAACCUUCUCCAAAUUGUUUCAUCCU RNA 2: GGGAAUGGAUCCACAUCUACGAAUUCUCUAGGAUGAAACAAUUUGGAGAAGAAUAGAUCGGAAGAGCACACGU
OUTPUT: 7.59

INPUT: Let us now turn to target 1 G12A,G17U (mixed) RNA 1: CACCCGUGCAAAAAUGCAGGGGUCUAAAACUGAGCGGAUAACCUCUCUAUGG RNA 2: GGGAAUGGAUCCACAUCUACGAAUUCGUACCAUAUAGAGAUUAUCCGCUCACCGAGAUCGGAAGAGCACACGU
OUTPUT: 7.72

Others:
INPUT: Can you look up the measured pKd of target 3 U2G,A9U (mixed) RNA 1: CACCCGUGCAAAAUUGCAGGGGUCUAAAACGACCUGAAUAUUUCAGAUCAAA RNA 2: GGGAAUGGAUCCACAUCUACGAAUUCGUUUUUGAUCUGAAAUUUUCAGGGCUGCAGAUCGGAAGAGCACACGU for me?
OUTPUT: 6.91
